Source: patent US12365687B2

target: human GABAA α1β3γ2 receptor (Homo sapiens (Human), UniProt P14867+P18507); experiment: Radioligand binding assay for γ2-containing GABAA subtypes, [3H]Flumazenil competition (α1β3γ2); details: Log[Ki α1β3γ2 (nM)/Ki α2β2γ1 (nM)]
measurement_label: LogSel
Answers are plain numbers.

Batch request: LogSel per item, same order as input.
1. COC1CN(C(=O)c2cn3c(n2)[C@H](C)N=C(c2ncccc2F)c2c-3ccc(C(F)(F)F)c2Cl)C1 [Example 145]
2. CC1CN(C(=O)c2cn3c(n2)[C@H](C)N=C(c2ncccc2F)c2c-3ccc(C(F)(F)F)c2Cl)C1 [Example 163]
3. C[C@@H]1N=C(c2c(F)cccc2F)c2c(ccc(Cl)c2Cl)-n2nc(N3CCCC3=O)nc21 [Example 50]

[2.15, 2.13, 1.92]

###

target: human GABAA α5β2γ1 receptor (Homo sapiens (Human), UniProt P31644+Q8N1C3); test: Radioligand binding assay for γ1-containing GABAA subtypes, [3H]RO7239181 competition (α5β2γ1)
Provide the recorded Ki for the entries that follow.

Solved entries (count: 6):
In [3]: df
Out[3]:
                                   compound                               test_system  value_measured
0  C[C@@H]1N=C(c2c(F)cccc2F)c2c(ccc(C(F)(F)F)c2Cl)-n2nc(N3CCOC3=O)nc21 [Example 121]  human GABAA α5β2γ1 receptor (Homo sapiens (Human), UniProt P31644+Q8N1C3)         1.43 nM
1  C[C@@H]1N=C(c2c(F)cccc2F)c2c(ccc(C(F)(F)F)c2Cl)-n2nc(C(=O)NC[C@@H](C)O)nc21 [Example 105]  human GABAA α5β2γ1 receptor (Homo sapiens (Human), UniProt P31644+Q8N1C3)         5.05 nM
2  COC1CN(C(=O)c2nc3n(n2)-c2ccc(C(F)(F)F)c(Cl)c2C(c2c(F)cccc2F)=NC3)C1 [Example 37]  human GABAA α5β2γ1 receptor (Homo sapiens (Human), UniProt P31644+Q8N1C3)          1.8 nM
3  CNC(=O)c1cn2c(n1)CN=C(c1ncccc1F)c1c-2ccc(Cl)c1Cl [Example 12]  human GABAA α5β2γ1 receptor (Homo sapiens (Human), UniProt P31644+Q8N1C3)          9.3 nM
4  C[C@@H]1N=C(c2c(F)cccc2F)c2c(ccc(Cl)c2Cl)-n2nc(C(=O)N3CC(CF)C3)nc21 [Example 72]  human GABAA α5β2γ1 receptor (Homo sapiens (Human), UniProt P31644+Q8N1C3)          1.1 nM
5  C[C@@H]1N=C(c2ncccc2F)c2c(ccc(C(F)(F)F)c2Cl)-n2cc(C(=O)NCCO)nc21 [Example 141]  human GABAA α5β2γ1 receptor (Homo sapiens (Human), UniProt P31644+Q8N1C3)         12.4 nM

Kindly review the next compound as well.
Any idea what Ki came out for COC1CN(C(=O)c2nc3n(n2)-c2ccc(C(F)(F)F)c(Cl)c2C(c2ncccc2F)=N[C@H]3C)C1 [Example 103] on human GABAA α5β2γ1 receptor (Homo sapiens (Human), UniProt P31644+Q8N1C3)?
9.87 nM

###

Assignment: determine reported Fold increase h-GABA-A α2β2γ1 oocyte @ 30-fold Ki for the given compounds.
molecular target: α2β2γ1 GABAA receptor subtype (Homo sapiens (Human), UniProt P47869+Q8N1C3); test: Two-electrode voltage clamp electrophysiology in Xenopus oocytes expressing GABAA receptors (modulation of GABA EC20 current); format: cell-based; conditions: Xenopus oocytes expressing α2β2γ1; compound at approx. 30-fold its Ki α2β2γ1; GABA EC20 current

# count of solved cases: 5
In [3]: df
Out[3]:
                                   compound                               test_system  value_measured
0  C[C@@H]1N=C(c2ncccc2F)c2c(ccc(C(F)(F)F)c2Cl)-n2c(CO)cnc21 [Example 151]  α2β2γ1 GABAA receptor subtype (Homo sapiens (Human), UniProt P47869+Q8N1C3)            3.53
1  C[C@@H]1N=C(c2c(F)cccc2F)c2c(ccc(Cl)c2Cl)-n2cc(C(=O)N3CC(C#N)C3)nc21 [Example 71]  α2β2γ1 GABAA receptor subtype (Homo sapiens (Human), UniProt P47869+Q8N1C3)            1.51
2  C[C@@H]1N=C(c2ncccc2F)c2c(ccc(Br)c2Cl)-n2nc(C(=O)N3CCC3)nc21 [Example 48]  α2β2γ1 GABAA receptor subtype (Homo sapiens (Human), UniProt P47869+Q8N1C3)            1.94
3  C[C@@H]1N=C(c2c(F)cccc2F)c2c(ccc(Cl)c2Cl)-n2nc(C(=O)N3CC(OC(F)F)C3)nc21 [Example 31]  α2β2γ1 GABAA receptor subtype (Homo sapiens (Human), UniProt P47869+Q8N1C3)            1.66
4  CNC(=O)c1nc2n(n1)-c1ccc(Cl)c(Cl)c1C(c1c(F)cccc1F)=NC2 [Example 6]  α2β2γ1 GABAA receptor subtype (Homo sapiens (Human), UniProt P47869+Q8N1C3)            2.01

Give measured Fold increase h-GABA-A α2β2γ1 oocyte @ 30-fold Ki for every item shown.
1. O=C(c1nc2n(n1)-c1ccc(Cl)c(Cl)c1C(c1c(F)cccc1F)=NC2)N1CC(O)C1 [Example 24]
2. C[C@@H]1N=C(c2c(F)cccc2F)c2c(ccc(Cl)c2Cl)-n2nc(C(=O)NC[C@@H](C)O)nc21 [Example 65]

1.88
1.80

Give Fold increase h-GABA-A α2β2γ1 oocyte @ 30-fold Ki for all compounds that follow.
1. C[C@@H]1N=C(c2ncccc2F)c2c(ccc(C(F)(F)F)c2Cl)-n2nc(C(=O)N3CC(OC(F)F)C3)nc21 [Example 140]
2. C[C@@H]1N=C(c2c(F)cccc2F)c2c(ccc(Cl)c2Cl)-n2nc(C(=O)N3CC[C@@H](O)C3)nc21 [Example 47]
3. C[C@@H]1N=C(c2ncccc2F)c2c(ccc(C(F)(F)F)c2Cl)-n2nc(C(=O)N3CC[C@H](F)C3)nc21 [Example 123]
4. CN(C)C(=O)c1nc2n(n1)-c1ccc(Cl)c(Cl)c1C(c1c(F)cccc1F)=NC2 [Example 9]
5. C[C@@H]1N=C(c2c(F)cccc2F)c2c(ccc(Cl)c2Cl)-n2nc(C(=O)N3CC(O)C3)nc21 [Example 25]
6. C[C@@H]1N=C(c2c(F)cccc2F)c2c(ccc(Cl)c2Cl)-n2nc(C(=O)NC3(C#N)CC3)nc21 [Example 61]
7. C[C@@H]1N=C(c2c(F)cccc2F)c2c(ccc(Cl)c2Cl)-n2cc(C(=O)N3CCC3)nc21 [Example 70]
8. C[C@@H]1N=C(c2c(F)cccc2F)c2c(ccc(C(F)(F)F)c2Cl)-n2nc(N3CCOC3=O)nc21 [Example 121]

2.21
1.74
2.62
2.23
1.63
1.99
1.73
1.52

###

Target: human GABAA α2β2γ1 receptor (Homo sapiens (Human), UniProt P47869+Q8N1C3)
Test: Radioligand binding assay for γ1-containing GABAA subtypes, [3H]RO7239181 competition (α2β2γ1)
Settings: Ki h-GABAA α2β2γ1, displacement of [3H]RO7239181, membranes of HEK293F cells expressing human receptors, means of two determinations
Experimental: The affinity of compounds at GABAA γ1 subunit-containing receptors was measured by competition for [^3H]RO7239181 (67.3 Ci/mmol; Roche) binding to membranes from HEK293F cells (ThermoFisher R79007) expressing human (transiently transfected) receptors of composition α5β2γ1, α2β2γ1, α1β2γ1. […]
Record form. Attribute: Ki. Fill in for each entry.
Numbers only, in nM.

Guide cases for Ki, answers given:
>>> print(df.to_string())
                            molecule_smiles  measurement_label  scale_unit  value_measured
0  C[C@H](O)CNC(=O)c1nc2n(n1)-c1ccc(C(F)(F)F)c(Cl)c1C(c1c(F)cccc1F)=N[C@H]2C                 Ki          nM            12.1
1  [2H]C([2H])([2H])NC(=O)c1nc2n(n1)-c1ccc(C(F)(F)F)c(Cl)c1C(c1c(F)cccc1F)=N[C@H]2C                 Ki          nM            14.3
2  CO[C@H]1CCN(C(=O)c2nc3n(n2)-c2ccc(Cl)c(Cl)c2C(c2c(F)cccc2F)=N[C@H]3C)C1                 Ki          nM            5.39
3  C[C@@H]1N=C(c2c(F)cccc2F)c2c(ccc(Cl)c2Cl)-n2nc(C(=O)N3CC(CF)C3)nc21                 Ki          nM             7.2
4  C[C@@H]1N=C(c2c(F)cccc2F)c2c(ccc(C(F)(F)F)c2Cl)-n2nc(C(=O)N3CC(C(F)F)C3)nc21                 Ki          nM            10.6

// for each molecule below, give its Ki
1. C[C@@H]1N=C(c2c(F)cccc2F)c2c(ccc(Cl)c2Cl)-n2nc(OC3COC3)nc21
2. Cc1nc2n(n1)-c1ccc(Cl)c(Cl)c1C(c1c(F)cccc1F)=NC2
3. C[C@@H]1N=C(c2c(F)cccc2F)c2c(ccc(C(F)(F)F)c2Cl)-n2nc(C(=O)NCCF)nc21
4. C[C@@H]1N=C(c2ncccc2F)c2c(ccc(C(F)(F)F)c2Cl)-n2cc(C(=O)N3CC(C)(O)C3)nc21
5. Cc1c(C(=O)NCCO)nc2n1-c1ccc(C(F)(F)F)c(Cl)c1C(c1ncccc1F)=N[C@H]2C
6. CNC(=O)c1cn2c(n1)CN=C(c1ncccc1F)c1c-2ccc(Cl)c1Cl

44.9
2.44
22.6
66.3
68.7
36.7
